- STUDY_SYSTEM: T1, E. coli-expressed recombinant human IL-13 (human, UniProt P35225 35-146)
- T1 construct: Untagged E. coli-expressed human IL-13; also called hIL-13; human IL13 (CA)
- T1 sequence (P35225 other isoform, or with tags, fused parts or gaps): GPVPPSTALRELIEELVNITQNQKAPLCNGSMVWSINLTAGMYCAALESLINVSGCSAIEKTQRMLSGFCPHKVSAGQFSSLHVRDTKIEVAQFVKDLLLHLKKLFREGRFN
- ASSAY_COMMENT: human IL-13 binding ELISA, CHO supernatant

- BINDER: "A3L1 (antibody, human IgG1, kappa, V domains shown, Humanised 6A1 combination, tested as CHO cell supernatant) VH: QVQLVQSGAEVKKPGSSVKVSCKASGFYIKDTYMHWVIQAPGQGLEWMGTIDPANGNTKYVPKFQGRVTITADTSTSTAYMELSSLRSEDTAVYYCARSIYDDYHYDDYYAMDYWGQGTLVTVSS VL: DIVMTQSPLSLPVTPGEPASISCRSSQNIVHINGNTYLEWYLQKPGQSPRLLIYKISDRFSGVPDRFSGSGSGTDFTLKISRVEADDVGIYYCFQGSHVPWTFGQGTKLEIKR"
  binding result: "binds"
